Reference for the values: ChEMBL document CHEMBL1629474

Quick list: inhibition per entry.
Target: Triosephosphate isomerase, glycosomal (Trypanosoma cruzi)
Assay: Inhibition of Trypanosoma cruzi triosephosphate isomerase at 100 uM after 2 hrs
Return type: number; implicit unit %.

Solved cases (4 shown):
O=S(=O)(c1ccccc1)c1no[n+]([O-])c1S(=O)(=O)c1ccccc1 | 35
O=C1C(=Cc2ccc([N+](=O)[O-])s2)C(=O)N(Cc2ccccc2)S(=O)(=O)N1Cc1ccccc1 | 84
C/C(=C\c1cccs1)[N+](=O)[O-] | 53
O=C(N/N=C/c1ccc([N+](=O)[O-])o1)Nc1cccc2ccccc12 | 20

Using the record for COc1ccc(CCNC(=O)N/N=C/c2ccc([N+](=O)[O-])o2)cc1OC , report its inhibition.
76

I am curious: what inhibition value has been reported for CC1=CC(=N/O)/C(=N\O)C=C1 ?
49

# lookup: inhibition of O=C1C(=Cc2ccc([N+](=O)[O-])cc2)C(=O)N(Cc2ccccc2)S(=O)(=O)N1Cc1ccccc1
28

Would you mind telling me what inhibition value was observed for C/C(=C\c1ccc2c(c1)OCO2)[N+](=O)[O-] ?
55

Bench note: what inhibition did O=[N+]([O-])c1ccc(C=Cc2ccc3no[n+]([O-])c3c2)s1 show?
82

Tell me the measured inhibition of c1ccc(-c2nsc(-c3ccccc3)n2)cc1 , please.
45

Any idea what inhibition was measured for O=C(N/N=C/c1ccc([N+](=O)[O-])o1)Nc1ccc2ccccc2c1 ?
32

# inhibition lookup, item [O-][n+]1onc2ccc(/C=C/c3cccs3)cc21
27

----------
Target: Triosephosphate isomerase, glycosomal (Trypanosoma cruzi) (UniProt P52270)
Sequence (P52270 whole entry): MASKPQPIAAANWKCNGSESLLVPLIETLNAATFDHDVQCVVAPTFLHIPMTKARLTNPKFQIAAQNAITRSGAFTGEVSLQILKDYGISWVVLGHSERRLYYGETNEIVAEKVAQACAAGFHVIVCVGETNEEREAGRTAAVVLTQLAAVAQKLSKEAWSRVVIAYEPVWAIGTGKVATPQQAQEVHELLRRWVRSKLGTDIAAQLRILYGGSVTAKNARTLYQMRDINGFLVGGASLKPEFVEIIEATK
Assay: Inhibition of Trypanosoma cruzi triosephosphate isomerase at 400 uM after 2 hrs
Threshold rule: inhibition greater than or equal to 10% is True; below that, False.

O=C(N/N=C/c1ccc([N+](=O)[O-])o1)Nc1cccc2ccccc12 | True
CCCCNC(=O)N/N=C/c1ccc2no[n+]([O-])c2c1 | True
CCCCCCCCOC(=O)N/N=C/C=C/c1ccc([N+](=O)[O-])o1 | False
CN(C)CCCNS(=O)(=O)NCCCN(C)C | False
O=Cc1ccc2no[n+]([O-])c2c1 | True
C=CCNC(=S)N/N=C/c1ccc2c(c1)[n+]([O-])c(C)c(C)[n+]2[O-] | True
O=S(=O)(NCc1ccccc1)NCc1ccccc1 | True
O=S(=O)(/C=C/c1ccc2no[n+]([O-])c2c1)c1ccc(F)cc1 | True

Next up:
Could you verify whether the entry O=Cc1c(-c2ccccc2)no[n+]1[O-] shows inhibition of no less than 10%?
True

----------
Biological target: Triosephosphate isomerase, glycosomal (Trypanosoma cruzi) (UniProt P52270)
Assay: Inhibition of Trypanosoma cruzi triosephosphate isomerase at 400 uM after 2 hrs
Some compounds, each annotated with its measured inhibition.
# number only, unit % dropped from output

COCCNC(=O)N/N=C/c1ccc([N+](=O)[O-])s1 | 15

Fill blank: measured inhibition of the compound CCN(CC)CCCNS(=O)(=O)NCCCN(CC)CC is ____.
0

Entry CCCN(CCCCCn1nc(OCc2ccccc2)c2cc([N+](=O)[O-])ccc21)CCC(C)C1CC=C(C)CC1 (stereo not drawn) : reported inhibition = ?
11

Dear colleague, I am looking for the recorded inhibition of the following compound: N#Cc1ccc(C=Cc2ccc3no[n+]([O-])c3c2)cc1
0

Consider the compound Cc1nnc[n+]([O-])c1/C=C/c1ccc(Cl)cc1 and give its measured inhibition.
15

Please give the measured inhibition for this compound: O=[N+]([O-])c1ccc(/C=C/C=N/NC(=S)Nc2ccccc2)o1
100
